Numbers sourced from ChEMBL document CHEMBL5042495.

The following compounds are listed with their measured CC50 at 48 h values.
assay: Cytotoxicity in dog MDCK cells assessed as reduction in cell viability incubated for 48 hrs by crystal violet staining based assay; assay type: toxicity, Canis lupus familiaris

* Cc1cccc2cc(C(C#N)N(Cc3ccccc3)Cc3ccc(F)cc3)c(=O)[nH]c12 (stereo not given) | > 83 µM
* Cc1ccc2[nH]c(=O)c(C(C#N)N(Cc3ccccc3)Cc3ccc(C(C)C)cc3)cc2c1 (stereo not given) | > 83 µM
* COc1ccc(CN(Cc2ccc(C(C)(C)C)cc2)Cc2cc3cc(C)ccc3[nH]c2=O)cc1 | > 10 µM

Prompt: Consider the compound shown here: Cc1ccc2cc(C(C#N)N(Cc3ccccc3)Cc3ccc(C(C)C)cc3)c(=O)[nH]c2c1 (stereo not given) What is its recorded CC50 at 48 h?
Completion: > 83 µM

Prompt: Try the compound COc1ccc2[nH]c(=O)c(CN(Cc3ccc(C(C)(C)C)cc3)C(C)c3ccc(OC)c(Cl)c3)cc2c1 (stereo not given)
Completion: > 10 µM

Prompt: Also COc1ccc(C(C)N(Cc2ccc(C(C)(C)C)cc2)Cc2cc3cc(C)ccc3[nH]c2=O)cc1Cl (stereo not given) ?
Completion: > 10 µM

Prompt: Param item: COc1ccc([C@H](C)N(Cc2ccc(C(C)(C)C)cc2)Cc2cc3cc(C(C)C)ccc3[nH]c2=O)cc1
Completion: > 10 µM

Prompt: Follow-up entry: Cc1ccc2[nH]c(=O)c(CN(Cc3ccc(C(C)(C)C)cc3)[C@H](C)c3ccc(F)cc3)cc2c1
Completion: > 5 µM

Prompt: Then what about the compound CCc1ccc2[nH]c(=O)c(CN(Cc3ccc(C(C)(C)C)cc3)[C@@H](C)c3ccc(OC)cc3)cc2c1 ?
Completion: > 5 µM

Prompt: Please do the same for Cc1ccc2cc(C(N(Cc3ccc(F)cc3)Cc3ccc(C(C)C)cc3)C(F)(F)F)c(=O)[nH]c2c1 (stereo not given) as well.
Completion: > 33 µM

Prompt: Next entry: Cc1ccc2cc(CN(Cc3ccc(C(C)(C)C)cc3)Cc3cc(F)cc(F)c3)c(=O)[nH]c2c1
Completion: > 33 µM

Prompt: For Cc1ccc2cc(CN(Cc3ccc(C(C)C)cc3)Cc3ccccc3F)c(=O)[nH]c2c1 then?
Completion: > 33 µM

Prompt: # repeat for Cc1ccc2[nH]c(=O)c(CN(Cc3ccc(C(C)(C)C)cc3)[C@@H](C)c3ccc(F)cc3)cc2c1
Completion: > 5 µM

Prompt: Also CC(C)(C)c1ccc(CN(Cc2ccc(C(F)(F)F)c(Cl)c2)Cc2cc3cc(C4CC4)ccc3[nH]c2=O)cc1 , if possible.
Completion: > 10 µM

###

Listing of entries alongside the reported CC50 at 48 h.
test: Cytotoxicity in dog MDCK cells assessed as reduction in cell viability incubated for 48 hrs by crystal violet staining based assay; type: toxicity, Canis lupus familiaris
Reply with just the number (in µM).

* Cc1ccc2[nH]c(=O)c(CN(Cc3ccc(O)cc3)Cc3ccc(C(C)(C)C)cc3)cc2c1 | 4.9
* C[C@@H](c1ccc(OC(F)(F)F)cc1)N(Cc1ccc(C(F)(F)F)c(Cl)c1)Cc1cc2cc(C3CC3)ccc2[nH]c1=O | 7.9
* CC(c1ccc(N(C)C)c(Cl)c1)N(Cc1ccc(C(C)(C)C)cc1)Cc1cc2cc(Br)ccc2[nH]c1=O (stereo not drawn) | 6.1

Prompt: Any idea what CC50 at 48 h was measured for COc1ccc(CN(Cc2ccc(C(C)(C)C)cc2)Cc2cc3ccccc3[nH]c2=O)cc1 ?
Completion: 1.8
